Value source: the supplement of paper PMC10567573

Reported protein stability index is given for each of the following variants.
B1: CHIT1 (parent)
chain: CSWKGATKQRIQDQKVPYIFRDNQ

Variants of: B1
TEST_DESCRIPTION: protein stability index of a GFP-peptide fusion (GPS, HEK-293T) (PSI 1-6); higher = more stable;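 also: lentivirally expressed fusions sorted by FACS into six bins by GFP to DsRed ratio, PSI derived from sequencing read proportions per bin multiplied by bin number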
CONDITION_SUMMARY: c terminus: a fixed tail appended
Give the figure by itself; no unit, no explanation.

mutation_descriptor=K15Y recorded_value=3.73
mutation_descriptor=W3F recorded_value=2.78
mutation_descriptor=Q24D recorded_value=3.34
mutation_descriptor=D13Y recorded_value=1.83
mutation_descriptor=D22H recorded_value=1.72
mutation_descriptor=F20S recorded_value=3.13
mutation_descriptor=K4D recorded_value=2.7
mutation_descriptor=I11R recorded_value=3.15
mutation_descriptor=W3L recorded_value=2.71
mutation_descriptor=K8V recorded_value=3.23

Please look at the following variant next.
Per the record, D22A has protein stability index of 2.57
